log10 Ki for UniProt:P08913 - collated from the literature.
system.name: UniProt:P08913
Sequence (P08913 whole entry): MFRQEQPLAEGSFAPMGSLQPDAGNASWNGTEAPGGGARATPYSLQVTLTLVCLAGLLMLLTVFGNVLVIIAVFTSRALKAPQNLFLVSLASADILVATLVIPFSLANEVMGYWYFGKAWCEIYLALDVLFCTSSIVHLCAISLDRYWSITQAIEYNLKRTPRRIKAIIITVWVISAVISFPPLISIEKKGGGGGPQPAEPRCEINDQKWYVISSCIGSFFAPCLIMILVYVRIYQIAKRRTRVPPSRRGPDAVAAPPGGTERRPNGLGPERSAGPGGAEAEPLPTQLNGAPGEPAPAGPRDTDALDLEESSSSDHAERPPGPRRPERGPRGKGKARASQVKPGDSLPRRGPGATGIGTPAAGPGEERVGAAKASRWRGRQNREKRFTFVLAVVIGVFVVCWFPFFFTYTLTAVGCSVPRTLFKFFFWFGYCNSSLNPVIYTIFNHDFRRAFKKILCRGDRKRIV
Each number you see is log10 of Ki, and the unit inside the log is nM.

Would you kindly share the measured log10 Ki for O=C1c2ccccc2C(=O)N1CC#Cc1ccc2c(c1)C=C([N+](=O)[O-])C(C(F)(F)F)O2 (stereo unspecified) ? 2.81

Again, but for CNC(=O)C1=C(C)NC(C)=C(C(=O)NCCCN2CCC(c3ccccc3)(c3ccccc3)CC2)C1c1ccc2c(c1)OCO2 (stereo unspecified) 3.32

Again, but for c1ccc([C@@H]2Cc3nccn3C2)c(-c2ncco2)c1 2.91

Again, but for CC(Oc1ccccc1-c1cccc(F)c1)C1=NCCN1 (stereo unspecified) 1.17

Again, but for CO/C(O)=C1\C(C)=NC(C)=C(C(=O)N(C)CCCN2CCC(c3ccccc3)(c3ccccc3)CC2)C1c1ccc([N+](=O)[O-])cc1 (stereo unspecified) 2.83

***
Would you kindly share the measured log10 Ki for c1cncc(-c2ccccc2[C@@H]2Cc3nccn3C2)c1 ? 3.00

Again, but for CCC[C@H]1C2CCC(C2)[C@H]1NC1=NCCO1 (stereo partly specified) 1.45

* * *

Ki for Alpha-2A adrenergic receptor (Homo sapiens, UniProt P08913) - collated from the literature.
system.name: Alpha-2A adrenergic receptor (Homo sapiens, UniProt P08913)
Sequence (P08913 whole entry): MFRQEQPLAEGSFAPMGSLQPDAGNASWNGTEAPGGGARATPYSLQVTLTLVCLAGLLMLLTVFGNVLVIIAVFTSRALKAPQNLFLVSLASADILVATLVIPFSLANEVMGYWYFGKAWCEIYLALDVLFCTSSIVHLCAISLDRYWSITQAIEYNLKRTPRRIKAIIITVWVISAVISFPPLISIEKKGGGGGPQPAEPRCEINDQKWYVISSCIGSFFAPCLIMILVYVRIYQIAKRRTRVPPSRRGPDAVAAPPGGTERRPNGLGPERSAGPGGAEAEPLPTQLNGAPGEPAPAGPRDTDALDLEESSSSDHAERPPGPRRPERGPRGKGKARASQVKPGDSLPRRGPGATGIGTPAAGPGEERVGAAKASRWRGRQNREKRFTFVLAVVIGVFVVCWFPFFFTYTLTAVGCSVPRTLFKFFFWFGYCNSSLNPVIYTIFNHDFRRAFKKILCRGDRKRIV
Give just the number in µM; leave the unit off.

Here is how some compounds turned out for Ki.
What is its Ki for Alpha-2A adrenergic receptor (Homo sapiens, UniProt P08913)? Entry: C=C1CCN2Cc3ccc(OC)cc3[C@H]3CCCC[C@]32C1 0.531

Again, but for COc1cc2c(cc1OC)C1=NO[C@@H](CN3CCN(C/C(C)=C/c4ccsc4)CC3)[C@@H]1CO2 0.0011

***
What is its Ki for Alpha-2A adrenergic receptor (Homo sapiens, UniProt P08913)? Entry: Cc1cccc(-c2ccccc2OC(C)C2=NCCN2)c1 (stereo unspecified) 0.0513

Again, but for CC(Oc1ccccc1-c1ccccc1[N+](=O)[O-])C1=NCCN1 (stereo unspecified) 0.174

Again, but for Oc1cc2c(cc1O)C1c3ccccc3CNC1CO2 (racemic) 0.18

Again, but for COc1ccc(CCCN2CCC(CCC(=O)c3cc(Cl)c(N)c4c3OCCO4)CC2)cc1OC 0.1

Again, but for CC1(C)C2c3ccccc3C[C@@]21c1c[nH]cn1 (single isomer, unassigned) 0.00107

Again, but for CC(Oc1ccccc1-c1ccc(O)cc1)C1=NCCN1 (stereo unspecified) 0.0339

Again, but for C1=NCC(CC2=Cc3ccccc3CC2)N1 (stereo unspecified) 0.1

Again, but for CCC1(c2c[nH]cn2)Cc2ccc(F)cc2C1 (stereo unspecified) 0.00724

Again, but for CCNc1ccc(NC(=N)NCCO)cc1 18.6

Again, but for Cc1cccc(N)c1C(=O)NN1c2ccc(Cl)cc2N=C(N2CCN(C)CC2)c2ccccc21 0.456

Again, but for COc1cc2c(cc1OC)C1=NO[C@@H](CN3CCN(C/C=C/c4ccccc4F)CC3)[C@@H]1CO2 0.0029

Again, but for CO/C(O)=C1\C(C)=NC(C)=C(C(=O)NCCCN2CCC(c3ccccc3)(c3ccccc3)CC2)C1c1ccc(Cl)cc1 (stereo unspecified) 2.14
